- Experimental System: Laccase (Trametes versicolor)
- Test Description: Inhibition of Trametes versicolor laccase assessed as production of dopachrome using 200 uM dopamine as substrate preincubated for 30 mins before substrate addition
Parameter Measured: IC50 (µM)

>  <Molecule>
[N-]=[N+]=[N-] [SODIUM AZIDE]

>  <Parameter Measured>
IC50

>  <Reported Value>
257

$$$$
>  <Molecule>
CC[C@H]1CCCC[C@@]2(C[C@@H]3CC[C@@H]4[C@H](C(=O)OCCCCCCCCCCCCCCCC(=O)N(CCCN)CCCCN)[C@]5(CCC[C@@H](C)O5)NC(=[N+]34)N2)O1.[Cl-] [PTILOMYCALIN A]

>  <Parameter Measured>
IC50

>  <Reported Value>
4.9

$$$$

---

- Test Description: Inhibition of laccase in Cryptococcus neoformans var. grubii assessed as production of dopachrome using 100 uM epinephrine as substrate preincubated for 30 mins before substrate addition
pIC50: −log10 of the molar value.
Listed below: pIC50 values for each entry.
Parameter Measured: pIC50

>  <Compound>
CC[C@H]1CCCC[C@@]2(C[C@@H]3CC[C@@H]4[C@H](C(=O)OCCCCCCCCCCCCCCCC(=O)N(CCCN)CCCCN)[C@]5(CCC[C@@H](C)O5)NC(=[N+]34)N2)O1.[Cl-]

>  <Reported Value>
5.14

$$$$
>  <Compound>
[N-]=[N+]=[N-] [SODIUM AZIDE]

>  <Reported Value>
3.48

$$$$

---

Listed next: entries and their corresponding IC50.
- Experimental System: Laccase (Trametes versicolor, UniProt O94222)
- Test Description: Inhibition of Trametes versicolor laccase assessed as production of dopachrome using 300 uM L-dopa as substrate preincubated for 30 mins before substrate addition
Parameter Measured: IC50

>  <Molecule>
CC[C@H]1CCCC[C@@]2(C[C@@H]3CC[C@@H]4[C@H](C(=O)OCCCCCCCCCCCCCCCC(=O)N(CCCN)CCCCN)[C@]5(CCC[C@@H](C)O5)NC(=[N+]34)N2)O1.[Cl-]

>  <Reported Value>
5.8 µM

$$$$
>  <Molecule>
[N-]=[N+]=[N-] [SODIUM AZIDE]

>  <Reported Value>
279 µM

$$$$

---

Let's look at some compounds and their measured pIC50.
- Experimental System: UniProtKB O94222
- Sequence (O94222 whole entry): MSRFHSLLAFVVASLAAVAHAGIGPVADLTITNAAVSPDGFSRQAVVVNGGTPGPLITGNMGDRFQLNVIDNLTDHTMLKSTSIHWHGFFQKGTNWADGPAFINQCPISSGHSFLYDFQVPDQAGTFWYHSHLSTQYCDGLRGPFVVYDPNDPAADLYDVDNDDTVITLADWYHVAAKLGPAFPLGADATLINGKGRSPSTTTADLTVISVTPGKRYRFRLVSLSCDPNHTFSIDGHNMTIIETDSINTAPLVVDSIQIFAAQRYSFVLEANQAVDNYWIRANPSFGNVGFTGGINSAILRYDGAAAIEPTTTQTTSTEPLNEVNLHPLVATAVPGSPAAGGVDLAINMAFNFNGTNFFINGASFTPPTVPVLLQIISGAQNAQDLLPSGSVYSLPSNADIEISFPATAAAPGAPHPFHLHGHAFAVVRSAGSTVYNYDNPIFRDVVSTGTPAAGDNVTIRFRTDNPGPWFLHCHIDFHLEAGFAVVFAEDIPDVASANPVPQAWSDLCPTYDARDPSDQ
- Test Description: Inhibition of Trametes versicolor laccase assessed as production of dopachrome using 100 uM epinephrine as substrate preincubated for 30 mins before substrate addition
pIC50: −log10 of the molar value.
Parameter Measured: pIC50

>  <Compound>
CC[C@H]1CCCC[C@@]2(C[C@@H]3CC[C@@H]4[C@H](C(=O)OCCCCCCCCCCCCCCCC(=O)N(CCCN)CCCCN)[C@]5(CCC[C@@H](C)O5)NC(=[N+]34)N2)O1.[Cl-]

>  <Parameter Measured>
pIC50

>  <Reported Value>
5.33

$$$$
>  <Compound>
[N-]=[N+]=[N-] [SODIUM AZIDE]

>  <Parameter Measured>
pIC50

>  <Reported Value>
3.58

$$$$
